The measured values listed here are drawn from patent US20100286145A1.

Below, each entry is listed with its recorded Ki.
Biological target: UniProt:P56817
Sequence (P56817 46-501): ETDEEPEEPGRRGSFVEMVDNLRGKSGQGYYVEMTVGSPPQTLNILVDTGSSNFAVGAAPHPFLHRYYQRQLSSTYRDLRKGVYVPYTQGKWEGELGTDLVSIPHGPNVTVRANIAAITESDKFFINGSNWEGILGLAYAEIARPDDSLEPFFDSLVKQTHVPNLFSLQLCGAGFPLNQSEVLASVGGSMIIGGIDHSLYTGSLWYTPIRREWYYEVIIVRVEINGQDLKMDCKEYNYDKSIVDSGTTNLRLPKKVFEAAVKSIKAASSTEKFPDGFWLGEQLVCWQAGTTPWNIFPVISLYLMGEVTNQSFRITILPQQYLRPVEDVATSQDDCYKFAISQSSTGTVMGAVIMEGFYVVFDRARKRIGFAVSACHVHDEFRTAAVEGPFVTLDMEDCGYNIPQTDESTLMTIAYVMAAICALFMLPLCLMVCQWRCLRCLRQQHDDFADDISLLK
Assay: Inhibition of memapsin 2 beta-secretase activity (fluorogenic substrate FS-2)
Type: biochemical
Conditions: memapsin 2, pH 4, 37° C., fluorogenic substrate FS-2; read-out: M2Ki

See these solved cases before continuing.
- compound: "C=C(C)c1cncc(CNC[C@@H](O)[C@H](Cc2ccccc2)NC(=O)c2cccc(C(=O)N(C)Cc3nc(CO)cs3)c2)c1"
  Ki: "< 300 nM"
- compound: "Cc1csc(CN(C)C(=O)c2cccc(C(=O)N[C@@H](Cc3ccccc3)[C@H](O)CNCc3cncc(C(C)C)c3)c2O)n1"
  Ki: "> 501 nM"
- compound: "COc1cccc([C@H](C)NC[C@@H](O)[C@H](Cc2ccccc2)NC(=O)c2cc(C(=O)N(C)Cc3nc(C)cs3)cc(C(F)F)c2)c1"
  Ki: "< 300 nM"

Input line: Record request: Ki value, item "CC(=O)c1cncc(CNC[C@@H](O)[C@H](Cc2ccccc2)NC(=O)c2cccc(C(=O)N(C)Cc3nc(C)cs3)c2)c1"
Output line: < 300 nM

Input line: What does the data say about its Ki? Entry: "Cc1csc(CN(C)C(=O)c2cc(C(=O)N[C@@H](Cc3ccccc3)[C@H](O)CNCc3cncc(C(C)C)c3)cc(-c3ccoc3)c2)n1"
Output line: < 300 nM

Input line: Look up Ki: "CC(C)c1cncc(CNC[C@@H](O)[C@H](Cc2ccccc2)NC(=O)c2cc(C(=O)N[C@H](C)c3ccccc3)cc(-c3ncco3)c2)c1"
Output line: < 300 nM
